Parameter IC50: see the listing below.
- Target or test system: recombinant human deoxyuridine nucleotidohydrolase (dUTPase) (Homo sapiens)
- Measurement description: dUTPase inhibition, fluorescence-based DNA polymerase assay
Quantity name: IC50 (nM)

[
  {
    "Test smiles": "CC(C)(NS(=O)(=O)c1cccc(OC2CCCC2)c1)c1ccc(CN2CC(=O)NC2=O)cc1",
    "Target or test system": "recombinant human deoxyuridine nucleotidohydrolase (dUTPase) (Homo sapiens)",
    "Quantity name": "IC50",
    "Recorded number": 300
  },
  {
    "Test smiles": "O=C1CN(Cc2ccc(CNS(=O)(=O)c3cccc(OC4CCCC4)c3)cc2)C(=O)N1",
    "Target or test system": "recombinant human deoxyuridine nucleotidohydrolase (dUTPase) (Homo sapiens)",
    "Quantity name": "IC50",
    "Recorded number": 1400
  }
]

====

- Target or test system: recombinant human deoxyuridine nucleotidohydrolase (dUTPase) (Homo sapiens, UniProt P33316)
- Construct: made in house
- Sequence (P33316 1-164 isoform P33316-2): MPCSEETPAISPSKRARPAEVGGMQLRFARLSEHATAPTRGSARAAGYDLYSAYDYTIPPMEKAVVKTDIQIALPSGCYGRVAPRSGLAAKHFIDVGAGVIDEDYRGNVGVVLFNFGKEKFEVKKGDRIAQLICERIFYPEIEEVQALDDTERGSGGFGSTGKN
- Measurement description: dUTPase inhibition, fluorescence-based DNA polymerase assay
- Format: biochemical
- Assay conditions: mean over three concentrations, typically 100, 50 and 25 μmol/L, relative to in-run positive control
Catalogue of compounds with associated % relative inhibition vs. positive control
Quantity name: % relative inhibition vs. positive control (%)

[
  {
    "Compound": "O=C1CN(CCOCCCNS(=O)(=O)c2cccc(OCC3CC3)c2)C(=O)N1",
    "Unit text": "%",
    "Recorded number": 136
  },
  {
    "Compound": "CC(C)COc1cc(S(=O)(=O)NCCC/C=C/CN2CCC(=O)NC2=O)ccc1F [Compound 50a]",
    "Unit text": "%",
    "Recorded number": 156
  },
  {
    "Compound": "CC(C)COc1cc(S(=O)(=O)NCCCCCCN2CCC(=O)NC2=O)ccc1F [Compound 50b]",
    "Unit text": "%",
    "Recorded number": 141
  },
  {
    "Compound": "CC(C)COc1cc(S(=O)(=O)NCCC/C=C/CN2CC(=O)NC2=O)ccc1F [Compound 45a]",
    "Unit text": "%",
    "Recorded number": 178
  },
  {
    "Compound": "O=C1CN(Cc2ccc(CNS(=O)(=O)c3cccc(OC4CCCC4)c3)cc2)C(=O)N1",
    "Unit text": "%",
    "Recorded number": 53
  },
  {
    "Compound": "O=C1CN(C/C=C/CCCNS(=O)(=O)c2cccc(OCC3CC3)c2)C(=O)N1 [Compound 44a]",
    "Unit text": "%",
    "Recorded number": 159
  },
  {
    "Compound": "O=C1CCN(CCOCCCNS(=O)(=O)c2cccc(OCC3CC3)c2)C(=O)N1",
    "Unit text": "%",
    "Recorded number": 8
  },
  {
    "Compound": "O=C1CCN(C/C=C/CCCNS(=O)(=O)c2ccc(F)c(OCC3CC3)c2)C(=O)N1 [Compound 49a]",
    "Unit text": "%",
    "Recorded number": 151
  },
  {
    "Compound": "O=C1CCN(CCCOCCNS(=O)(=O)c2cccc(OCC3CC3)c2)C(=O)N1",
    "Unit text": "%",
    "Recorded number": 82
  },
  {
    "Compound": "O=C1CN(CCCCCCNS(=O)(=O)c2ccc(F)c(OCC3CC3)c2)C(=O)N1 [Compound 44b]",
    "Unit text": "%",
    "Recorded number": 168
  },
  {
    "Compound": "O=C1CCN(C/C=C/CCCNS(=O)(=O)c2ccc(F)c(OCC3CC3)c2)C(=O)N1 [Compound 49b]",
    "Unit text": "%",
    "Recorded number": 144
  },
  {
    "Compound": "CC(C)(NS(=O)(=O)c1cccc(OC2CCCC2)c1)c1ccc(CN2CC(=O)NC2=O)cc1",
    "Unit text": "%",
    "Recorded number": 249
  },
  {
    "Compound": "CC(C)COc1cc(S(=O)(=O)NCCCCCCN2CC(=O)NC2=O)ccc1F [Compound 45b]",
    "Unit text": "%",
    "Recorded number": 151
  }
]
